Target: hNTS1 (Homo sapiens)
Sequence (P30989 whole entry): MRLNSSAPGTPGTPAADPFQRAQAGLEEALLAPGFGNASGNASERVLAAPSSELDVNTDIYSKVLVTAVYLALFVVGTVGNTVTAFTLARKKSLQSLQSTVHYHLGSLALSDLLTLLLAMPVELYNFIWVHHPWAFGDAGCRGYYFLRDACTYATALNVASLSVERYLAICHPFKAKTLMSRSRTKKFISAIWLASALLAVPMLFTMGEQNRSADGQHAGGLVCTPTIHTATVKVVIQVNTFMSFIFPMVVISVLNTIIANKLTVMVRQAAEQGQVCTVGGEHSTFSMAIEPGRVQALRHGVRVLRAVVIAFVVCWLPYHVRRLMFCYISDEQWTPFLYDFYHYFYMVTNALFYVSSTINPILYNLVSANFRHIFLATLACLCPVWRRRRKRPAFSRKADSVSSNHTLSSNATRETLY
Assay: Competitive radioligand binding assay, 125I-[Tyr3]-NT displacement, CHO-K1 cell membranes
Numbered stars: 1 amine (or outer) side, 2 acyl side, 3 side chain; on linkers, the order of the positions; unused ones are H or OH. Square brackets hold non-standard residues; d marks the D form. Peptide text beside a SMILES is read from it. X1 = NCCCC[C@H](N)CN([C@@H](CCCCN)C(=O)[*:2])[*:1]; Ala(SiMe3) = C[Si](C)(C)C[C@H](N)C(=O)O
Recorded Ki by entry
Please give a number only; it is taken to be in nM.

As a guide, the following entries are already answered.
CC[C@H](C)[C@H](NC(=O)[C@H](Cc1ccc(O)cc1)NC(=O)[C@@H]1CCCN1C(=O)[C@H](CCCCN)NC[C@@H](N)CCCCN)C(=O)N[C@@H](C[Si](C)(C)C)C(=O)O [Compound 4, H-Lysψ[CH2NH]Lys-Pro-Tyr-Ile-TMSAla-OH] (H-[X1]PYI[Ala(SiMe3)]-OH)
2.5
CC[C@H](C)[C@H](NC(=O)[C@H](Cc1ccc(O)cc1)NC(=O)[C@@H]1CCCN1C(=O)[C@H](CCCCN)NC[C@@H](N)CCCCN)C(=O)N[C@@H](CC(C)C)C(=O)O [Compound 2, H-LysΨ[CH2NH]Lys-Pro-Tyr-Ile-Leu-OH] (H-[X1]PYIL-OH)
2
CC[C@H](C)[C@H](NC(=O)[C@H](CCCCN)NC(=O)[C@@H]1CCCN1C(=O)[C@H](CCCCN)NC(=O)[C@@H](N)CCCCN)C(=O)N[C@@H](C[Si](C)(C)C)C(=O)O [Compound 11, H-Lys-Lys-Pro-Lys-Ile-TMSAla-OH] (H-KKPKI[Ala(SiMe3)]-OH)
710

Read the next record carefully.
*Q* Look up Ki: CC[C@H](C)[C@H](NC(=O)[C@@H](Cc1c[nH]c2ccccc12)NC(=O)[C@@H]1CCCN1C(=O)[C@H](CCCCN)NC[C@@H](N)CCCCN)C(=O)N[C@@H](C[Si](C)(C)C)C(=O)O [Compound 14, H-Lysψ[CH2NH]Lys-Pro-D-Trp-Ile-TMSAla-OH] (H-[X1]P[dW]I[Ala(SiMe3)]-OH)
*A* 55
